procedure_text: Inhibition of amyloid beta (1 to 42) self aggregation at 20 uM after 48 hrs by thioflavin T fluorescence assay
assay_endpoint: inhibition (%)

compound_string | experimental_result
COc1ccc2cc3[n+](cc2c1OCCCOc1ccc(-c2cc4ccccc4o2)cc1)CCc1cc2c(cc1-3)OCO2 | 84.6
COc1ccc2cc3[n+](cc2c1OC)CCc1cc2c(cc1-3)OCO2 | 36.3
COc1ccc2cc3[n+](cc2c1OCCCNC(=O)c1cc2ccccc2[nH]1)CCc1cc2c(cc1-3)OCO2 | 73.5
COc1ccc2cc3[n+](cc2c1OCCCOc1ccc(-c2nc4ccccc4s2)cc1)CCc1cc2c(cc1-3)OCO2 | 79.2
COc1ccc2cc3[n+](cc2c1OCCCNC(=O)c1cc2ccccc2o1)CCc1cc2c(cc1-3)OCO2 | 69.1
c1ccc2sc(-c3ccc(OCCCCCNc4c5c(nc6ccccc46)CCCC5)cc3)nc2c1 | 40.7
c1ccc2sc(-c3ccc(OCCCNc4c5c(nc6ccccc46)CCCC5)cc3)nc2c1 | 51.8
c1ccc2sc(-c3ccc(OCCCCCCNc4c5c(nc6ccccc46)CCCC5)cc3)nc2c1 | 41.9
